The values you see were collected from PubChem BioAssay AID1963831.

Tested on: 889142-216-R-J1-PDC complex spheroid viability
protocol: Anticancer human tumor 889142-216-R-J1-PDC patient-derived bladder carcinoma cell line growth inhibition [POLQ]
condition set: second compound 0.1 µM; first compound 0.316 µM; stronger effect = lower value
Description: Multicellular complex tumor spheroid response to Polymerase (POL) inhibitors (novobiocin, ART-558, RP6685) in combination with a variety of drugs and investigational agents in selected tumor cell lines The POL inhibitors (novobiocin, ART-558, and RP6685) were evaluated both individually and in combination with standard of care and investigational anticancer small molecules within a complex spheroid model of solid tumors. . […]
measure name: viability, T/C (%)
Please state the figure in %; there is no need to write the unit.

{"compound": "CC1COCCN1c1cc(C2(O)CC3CCC(C2)O3)c2cnn(-c3ccn[nH]3)c2n1 (stereo not drawn) + Cc1cccc(N(C)C(=O)C2C(O)CCN2c2nc(C)cc(C(F)(F)F)c2C#N)c1", "value units": "%", "readout number": 36.1}

Problem: Quick one: give measured viability, T/C for COc1cc2cc(C(=O)CCC(=O)O)sc2cc1OC + Nc1ccc(C#CCN(C(=O)Cc2ncc(C(F)(F)F)cc2C(F)(F)F)c2ccc(F)cc2)nn1
Solution: 82.7

Problem: Supply viability, T/C value. Item: COc1cc2cc(C(=O)CCC(=O)O)sc2cc1OC + Cc1cccc(N(C)C(=O)C2C(O)CCN2c2nc(C)cc(C(F)(F)F)c2C#N)c1
Solution: 92.7

----------
Collected pIC50 values appear next to each entry.
Tested on: 889142-216-R-J1-PDC complex spheroid viability
protocol: Anticancer human tumor 889142-216-R-J1-PDC cell line growth inhibition [POLQ];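 also: spheroids exposed to compounds for seven days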
condition set: curve of first compound; second compound 0.1 µM
pIC50: −log10 of the molar value.

Consider the worked cases shown below.
{"compound": "COc1ccc([C@@H](O)c2cc(-c3ncnc4cc(N5CCOCC5)ccc34)c(F)cc2Cl)nn1 + COC1C(OC(N)=O)C(O)C(Oc2ccc3c(O)c(NC(=O)c4ccc(O)c(CC=C(C)C)c4)c(=O)oc3c2C)OC1(C)C", "pIC50": "< 5.00"}
{"compound": "COc1cccc2c1C(=O)c1c(O)c3c(c(O)c1C2=O)CC(O)(C(=O)CO)CC3OC1CC(N)C(O)C(C)O1 (centres undefined) + Nc1ccc(C#CCN(C(=O)Cc2ncc(C(F)(F)F)cc2C(F)(F)F)c2ccc(F)cc2)nn1", "pIC50": 6.47}
{"compound": "CC(=O)O[C@H]1C(=O)[C@@]2(C)[C@H]([C@H](OC(=O)c3ccccc3)[C@]3(O)C[C@H](OC(=O)[C@H](O)[C@@H](NC(=O)c4ccccc4)c4ccccc4)C(C)=C1C3(C)C)[C@]1(OC(C)=O)CO[C@@H]1C[C@@H]2O + COC1C(OC(N)=O)C(O)C(Oc2ccc3c(O)c(NC(=O)c4ccc(O)c(CC=C(C)C)c4)c(=O)oc3c2C)OC1(C)C", "pIC50": "> 8.02"}
{"compound": "CCc1cc2c(N3CCc4c(cc(Cn5ccnc5)cc4-c4cn(C)nc4C(F)(F)F)C3=O)cc(C)nc2c(OC)n1 + Cc1cccc(N(C)C(=O)C2C(O)CCN2c2nc(C)cc(C(F)(F)F)c2C#N)c1", "pIC50": "< 5.00"}

Problem: Quick one: give measured pIC50 for CC1COCCN1c1cc(-c2ccnn2C)c2ccnc(-c3ccn[nH]3)c2n1 (centres undefined) + COC1C(OC(N)=O)C(O)C(Oc2ccc3c(O)c(NC(=O)c4ccc(O)c(CC=C(C)C)c4)c(=O)oc3c2C)OC1(C)C
Solution: 6.79

Problem: Give pIC50 for Cn1ncnc1[C@H]1c2n[nH]c(=O)c3cc(F)cc(c23)N[C@@H]1c1ccc(F)cc1 + Cc1cccc(N(C)C(=O)C2C(O)CCN2c2nc(C)cc(C(F)(F)F)c2C#N)c1
Solution: < 7.00

Problem: Tell me measured pIC50 for C#Cc1c(F)ccc2cc(O)cc(-c3ncc4c(N5CC6CCC(C5)N6)nc(OCC56CCCN5CC(F)C6)nc4c3F)c12 (centres undefined) + Cc1cccc(N(C)C(=O)C2C(O)CCN2c2nc(C)cc(C(F)(F)F)c2C#N)c1 please.
Solution: 5.30

Problem: Provide pIC50 value for the following compound: COc1cc(C2c3cc4c(cc3C(OC3OC5COC(C)OC5C(O)C3O)C3COC(=O)C23)OCO4)cc(OC)c1O (centres undefined) + Cc1cccc(N(C)C(=O)C2C(O)CCN2c2nc(C)cc(C(F)(F)F)c2C#N)c1
Solution: < 5.00

Problem: For the compound CC[C@@]1(O)C(=O)OCc2c1cc1n(c2=O)Cc2cc3c(CN(C)C)c(O)ccc3nc2-1 + Nc1ccc(C#CCN(C(=O)Cc2ncc(C(F)(F)F)cc2C(F)(F)F)c2ccc(F)cc2)nn1 , give its measured pIC50 value.
Solution: < 7.00
